Provenance of the data: paper PMC3426442

procedureDetails: in vitro
measurementConditions: human, microsomes
Recorded measurements of microsomal CLint, one per entry
Form entry: value (µL/min/mg) — number only.

COC(=O)[C@H](CCC(N)=O)NC(=O)CCCCCCCCNC(=O)[C@]12CC[C@@H](C(C)C)[C@@H]1[C@H]1CC[C@@H]3[C@@]4(C)CC[C@H](O)C(C)(C)[C@@H]4CC[C@@]3(C)[C@]1(C)CC2 | 219
C=C(C)[C@@H]1CC[C@]2(C(=O)NCCCCCCCNC(=O)[C@H](CCC(N)=O)NC(=O)OC(C)(C)C)CC[C@]3(C)[C@H](CC[C@@H]4[C@@]5(C)CC[C@H](O)C(C)(C)[C@@H]5CC[C@]43C)[C@@H]12 | 366
C=C(C)[C@@H]1CC[C@]2(C(=O)NCCCCCCCNC(C)=O)CC[C@]3(C)[C@H](CC[C@@H]4[C@@]5(C)CC[C@H](O)C(C)(C)[C@@H]5CC[C@]43C)[C@@H]12 | 272

Q: So what's the measured microsomal CLint for this one? `C=C(C)[C@@H]1CC[C@]2(C(=O)NCCCCCCCCC(=O)N[C@@H](CCC(N)=O)C(=O)OC)CC[C@]3(C)[C@H](CC[C@@H]4[C@@]5(C)CC[C@H](O)C(C)(C)[C@@H]5CC[C@]43C)[C@@H]12`
Result: 230

Q: // next record `C=C(C)[C@@H]1CC[C@]2(C(=O)NCCCCCCCCC(=O)N[C@@H](CCC(N)=O)C(=O)OCc3ccccc3)CC[C@]3(C)[C@H](CC[C@@H]4[C@@]5(C)CC[C@H](O)C(C)(C)[C@@H]5CC[C@]43C)[C@@H]12`
Result: 169

Q: Can you check `CC(C)[C@@H]1CC[C@]2(C(=O)NCCCCCCCCC(=O)N[C@@H](CCC(N)=O)C(=O)O)CC[C@]3(C)[C@H](CC[C@@H]4[C@@]5(C)CC[C@H](O)C(C)(C)[C@@H]5CC[C@]43C)[C@@H]12` next?
Result: 280
